Assay: self-splicing fitness, log relative to wild type (ln ratio); higher = more splicing; Tetrahymena group I intron in knt gene, E. coli kanamycin selection, DiMSum; sequences stand for … in CUCUCU…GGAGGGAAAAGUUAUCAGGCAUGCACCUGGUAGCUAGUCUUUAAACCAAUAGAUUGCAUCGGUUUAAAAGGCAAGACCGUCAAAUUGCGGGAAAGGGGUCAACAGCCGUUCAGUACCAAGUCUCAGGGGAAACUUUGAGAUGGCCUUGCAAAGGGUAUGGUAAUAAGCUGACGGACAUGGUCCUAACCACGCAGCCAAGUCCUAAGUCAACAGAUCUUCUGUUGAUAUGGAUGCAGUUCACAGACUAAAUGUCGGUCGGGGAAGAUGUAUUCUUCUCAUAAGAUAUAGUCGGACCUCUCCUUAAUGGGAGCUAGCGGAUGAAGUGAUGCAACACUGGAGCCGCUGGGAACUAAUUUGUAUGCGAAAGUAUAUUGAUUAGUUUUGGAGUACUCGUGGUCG;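 further: selection with 25 µg/mL kanamycin versus none on LB agar overnight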
Settings: 30 °C
readoutName: self-splicing fitness (ln)

[[record]]
inputsequence = "CGGUAGCAAUAUUACGAUCC"
result = -1.23

[[record]]
inputsequence = "UUAAAGCAAUAUUACGGUAG"
result = -0.312

[[record]]
inputsequence = "AUAAAGCAAUAUUACGCGCA"
result = 0.0901

[[record]]
inputsequence = "AGGCAGCAAUAUUACGUACA"
result = -0.585

[[record]]
inputsequence = "ACGCAGCAAUAUUACGCCCG"
result = -0.491

[[record]]
inputsequence = "AGCCAGCAAUAUUACGACAG"
result = -3.67

[[record]]
inputsequence = "ACUGAGCAAUAUUACGGCCA"
result = -2.43

[[record]]
inputsequence = "AAAUAGCAAUAUUACGAUUC"
result = -0.544

[[record]]
inputsequence = "UUCUAGCAAUAUUACGGCAG"
result = 0.185

[[record]]
inputsequence = "GCACAGCAAUAUUACGUUGU"
result = -3.71

[[record]]
inputsequence = "UCCUAGCAAUAUUACGGUAC"
result = -3.79

[[record]]
inputsequence = "CUCGAGCAAUAUUACGAAUG"
result = -1.91

[[record]]
inputsequence = "AAUUAGCAAUAUUACGCUCU"
result = -0.501

[[record]]
inputsequence = "UAUUAGCAAUAUUACGUGCU"
result = -2.12

[[record]]
inputsequence = "UGACAGCAAUAUUACGUGUG"
result = -0.953

[[record]]
inputsequence = "CUGGAGCAAUAUUACGAAUC"
result = -3.47

